Target: T1, cynoSIRPα (EGM_02252), Extracellular Domain + His-Tag (cynomolgus monkey)
T1 construct: also called CySIRPα EGM_02252; not shown: His-Tag
T1 chain: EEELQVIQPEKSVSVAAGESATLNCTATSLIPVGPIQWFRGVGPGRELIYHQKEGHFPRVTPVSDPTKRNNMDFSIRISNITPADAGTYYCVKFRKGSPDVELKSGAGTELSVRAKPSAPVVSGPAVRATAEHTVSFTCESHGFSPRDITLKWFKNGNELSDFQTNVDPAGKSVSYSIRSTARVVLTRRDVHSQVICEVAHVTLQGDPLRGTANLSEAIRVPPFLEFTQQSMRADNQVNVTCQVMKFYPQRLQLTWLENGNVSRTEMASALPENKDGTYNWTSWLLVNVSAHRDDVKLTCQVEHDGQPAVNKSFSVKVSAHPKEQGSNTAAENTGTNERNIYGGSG
Experiment: SPR, antibody captured on Protein A/G, ECD-His analyte, steady-state fit
Protocol: The binding kinetics of anti-SIRPα antibodies to various SIRPα analytes are determined by surface plasmon resonance (SPR) using a Biacore 8K+(Cytiva). 1×HBS-EP+(Cytiva) is used as running buffer and for all the dilutions unless stated otherwise. […]
quantity.kind: pKd
// scale note: pKd = -log10(conc_M); give the bare number

binder="Antibody A4 (antibody, human IgG1, kappa, L234A L235A, V domains shown) VH: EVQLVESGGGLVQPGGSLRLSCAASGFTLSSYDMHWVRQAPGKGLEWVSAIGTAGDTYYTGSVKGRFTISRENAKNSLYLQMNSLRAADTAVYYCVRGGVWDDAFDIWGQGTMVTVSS VL: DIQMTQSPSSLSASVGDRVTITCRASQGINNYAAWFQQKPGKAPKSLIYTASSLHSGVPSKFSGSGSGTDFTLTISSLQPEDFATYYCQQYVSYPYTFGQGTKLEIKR" quantity_kind=pKd result_value=6.31
binder="Antibody A13 (antibody, human IgG1, kappa, L234A L235A, V domains shown) VH: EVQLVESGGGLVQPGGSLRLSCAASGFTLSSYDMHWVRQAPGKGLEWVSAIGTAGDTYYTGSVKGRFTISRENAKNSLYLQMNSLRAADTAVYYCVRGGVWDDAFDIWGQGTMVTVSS VL: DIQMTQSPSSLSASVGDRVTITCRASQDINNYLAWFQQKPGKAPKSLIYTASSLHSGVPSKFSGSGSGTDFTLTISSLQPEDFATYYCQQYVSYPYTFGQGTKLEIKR" quantity_kind=pKd result_value=6.65
binder="Antibody A12 (antibody, human IgG1, kappa, L234A L235A, V domains shown) VH: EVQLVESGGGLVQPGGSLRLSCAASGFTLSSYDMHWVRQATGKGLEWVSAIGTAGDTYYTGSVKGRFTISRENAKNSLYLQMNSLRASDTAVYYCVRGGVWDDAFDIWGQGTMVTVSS VL: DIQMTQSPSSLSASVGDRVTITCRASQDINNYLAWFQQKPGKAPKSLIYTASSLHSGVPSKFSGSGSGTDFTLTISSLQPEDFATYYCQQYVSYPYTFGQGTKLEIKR" quantity_kind=pKd result_value=6.61

Could you now consider this next binder?
Per the records, this binder ( Antibody A9 (antibody, human IgG1, kappa, L234A L235A, V domains shown) VH: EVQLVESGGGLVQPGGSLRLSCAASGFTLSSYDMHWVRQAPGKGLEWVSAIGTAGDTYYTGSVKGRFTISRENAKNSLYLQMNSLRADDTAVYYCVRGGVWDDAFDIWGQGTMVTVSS VL: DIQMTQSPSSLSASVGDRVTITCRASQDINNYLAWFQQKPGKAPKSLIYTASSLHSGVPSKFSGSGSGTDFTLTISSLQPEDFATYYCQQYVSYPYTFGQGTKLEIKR ) has pKd equal to 6.64
